B1: ZNF263 (parent)
chain: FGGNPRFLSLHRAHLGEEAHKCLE

Variants of: B1
assayInfo: protein stability index of a GFP-peptide fusion (GPS, HEK-293T) (PSI 1-6); higher = more stable;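 further: lentivirally expressed fusions sorted by FACS into six bins by GFP to DsRed ratio, PSI derived from sequencing read proportions per bin multiplied by bin number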
particulars: c terminus: a fixed tail appended
Label N if protein stability index falls below 2; label Y in every other case.

L8C
N
G3A
N
E17D
N
R12A
Y

# input for lookup
Does `A19P` have a reported protein stability index of at least 2?
Y
